# test_system: T1, human isoleucine zipper-CD40L (IZ-hCD40L) (human, UniProt P29965 113-261)
# T1 sequence: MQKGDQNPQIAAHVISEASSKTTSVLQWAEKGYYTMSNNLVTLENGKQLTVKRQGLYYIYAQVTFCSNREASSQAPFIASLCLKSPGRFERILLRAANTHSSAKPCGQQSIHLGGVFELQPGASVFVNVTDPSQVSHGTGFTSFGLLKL
# experiment_notes: cell-based or functional assay
reported_metric: hIZCD40L-driven Human B Cell Proliferation EC50 (nM)
Just the number in nM, nothing appended.

As a guide, the following entries are already answered.
- 2h572-6-CT Long Fc (Fc fusion, not shown: linker and CT Long Fc (CT-L2)) EVQLLESGGGLVQPGGSLRLSCAASGFTFNWQLMGWVRQAPGKGLEWVSGIEGPGDVTYYADSVKGRFTISRDNSKNTLYLQMNSLRAEDTAVYYCVKVGKESNSDYRGQGTLVTVSS: 1
- 2h572-635-CT Long Fc (Fc fusion, not shown: linker and CT Long Fc (CT-L2)) EVQLLESGGGLVQPGGSLRLSCAASGFTFNWELMGWARQAPGKGLEWVSGIEGPGDVTYYADSVKGRFTISRDNSKNTLYLQMNSLRAEDTAVYYCVKVGKDSKSDYRGQGTLVTVSS: 3
- 2h572-619-Ctlong Fc (Fc fusion, not shown: linker and CT Long Fc (CT-L2)) EVQLLESGGGLVQPGGSLRLSCAASGFTFNWQLMGWVRQAPGKGLEWVSGIEGPGDVTYYADSVKGRFTISRDNSKNTLYLQMNSLRAEDTAVYYCVKVGKDSRSDYRGQGTLVTVSS: 1.6
- 2h572-633-CT Long Fc (Fc fusion, not shown: linker and CT Long Fc (CT-L2)) EVQLLESGGGLVQPGGSLRLSCAASGFTFNWELMGWARQAPGKGLEWVSGIEGPGDVTYYADSVKGRFTISRDNSKNTLYLQMNSLRAEDTAVYYCVKVGKDAKSDYRGQGTLVTVSS: 3

Asked: Specify hIZCD40L-driven Human B Cell Proliferation EC50 for 2h572-608-CT Long Fc (Fc fusion, not shown: linker and CT Long Fc (CT-L2)) EVQLLESGGGLVQPGGSLRLSCAASGFTFNWELMGWARQAPGKGLEWVSGIEGPGDVTYYADSVKGRFTISRDNSKNTLYLQMNSLRAEDTAVYYCVKVGKESNSDYRGQGTLVTVSS and stop.
Given back: 2

Asked: Input 2h572-614-CT Long Fc (Fc fusion, not shown: linker and CT Long Fc (CT-L2)) EVQLLESGGGLVQPGGSLRLSCAASGFTFNWQLMGWVRQAPGKGLEWVSGIEGPGDVTYYADSVKGRFTISRDNSKNTLYLQMNSLRAEDTAVYYCVKVGKDAKSDYRGQGTLVTVSS , output reported hIZCD40L-driven Human B Cell Proliferation EC50.
Given back: 2

Asked: Give the measured hIZCD40L-driven Human B Cell Proliferation EC50 for 2h572-634-CT Long Fc (Fc fusion, not shown: linker and CT Long Fc (CT-L2)) EVQLLESGGGLVQPGGSLRLSCAASGFTFNWELMGWARQAPGKGLEWVSGIEGPGDVTYYADSVKGRFTISRDNSKNTLYLQMNSLRAEDTAVYYCVKVGKDSRSDYRGQGTLVTVSS
Given back: 2
